test system: Rattus norvegicus; experiment: Cmax in Sprague-Dawley rat at 75 mg/kg, iv bolus; format: ADME, organism-based; parameters: dose 75 mg/kg, route intravenous; conditions: in vivo
Test Readout: Cmax

Data request, read-out Cmax, for `CNC(=O)C[C@@H]1NC(=O)c2csc(n2)-c2ccc(-c3nc(NC(=O)[C@H]4CC[C@H](C(=O)O)CC4)cs3)nc2-c2csc(n2)-c2csc(n2)[C@H]([C@@H](O)c2ccccc2)NC(=O)CNC(=O)c2nc(sc2COC)[C@H](C(C)C)NC(=O)c2nc1sc2C`
> 1000 µM

* * *

tested on: Enterococcus faecium; experiment: Antibacterial activity against Enterococcus faecium 7130724 by CLSI M07-A8 method; assay type: functional
Test Readout: MIC (µg/mL)
One number for each entry, in µg/mL.

Worked examples follow.
CNC(=O)C[C@@H]1NC(=O)c2csc(n2)-c2ccc(-c3nc(NC(=O)OCC(C)(C)N)cs3)nc2-c2csc(n2)-c2csc(n2)[C@H]([C@@H](O)c2ccccc2)NC(=O)CNC(=O)c2nc(sc2COC)[C@H](C(C)C)NC(=O)c2nc1sc2C ... 1
CNC(=O)C[C@@H]1NC(=O)c2csc(n2)-c2ccc(-c3nc(NC(=O)[C@H]4CC[C@@H](C(=O)O)CC4)cs3)nc2-c2csc(n2)-c2csc(n2)[C@H]([C@@H](O)c2ccccc2)NC(=O)CNC(=O)c2nc(sc2COC)[C@H](C(C)C)NC(=O)c2nc1sc2C ... 0.25
CNC(=O)C[C@@H]1NC(=O)c2csc(n2)-c2ccc(-c3nc(NC(=O)OCCCC(N)=O)cs3)nc2-c2csc(n2)-c2csc(n2)[C@H]([C@@H](O)c2ccccc2)NC(=O)CNC(=O)c2nc(sc2COC)[C@H](C(C)C)NC(=O)c2nc1sc2C ... 0.25

Now examine the next entry.
Data request, read-out MIC, for `CNC(=O)C[C@@H]1NC(=O)c2csc(n2)-c2ccc(-c3nc(NC(=O)CCCCC(=O)O)cs3)nc2-c2csc(n2)-c2csc(n2)[C@H]([C@@H](O)c2ccccc2)NC(=O)CNC(=O)c2nc(sc2COC)[C@H](C(C)C)NC(=O)c2nc1sc2C`
0.125

* * *

experiment: Volume of distribution at steady state in Sprague-Dawley rat at 75 mg/kg, iv bolus; assay type: ADME, organism-based; parameters: dose 75 mg/kg, route intravenous; settings: in vivo, read-out: Vdss
Test Readout: Vd

Data request, read-out Vd, for `CNC(=O)C[C@@H]1NC(=O)c2csc(n2)-c2ccc(-c3nc(NC(=O)[C@H]4CC[C@H](C(=O)O)CC4)cs3)nc2-c2csc(n2)-c2csc(n2)[C@H]([C@@H](O)c2ccccc2)NC(=O)CNC(=O)c2nc(sc2COC)[C@H](C(C)C)NC(=O)c2nc1sc2C`
< 0.1 L/kg

* * *

system: Enterococcus faecium; assay: Antibacterial activity against Enterococcus faecium 7130724 by CLSI M07-A8 method; type: functional
Answer each item with its documented MIC.
Provide a numeric answer, followed by its unit.

CNC(=O)C[C@@H]1NC(=O)c2csc(n2)-c2ccc(-c3nc(NC(=O)C(C)(C)CCCC(C)(C)C(=O)O)cs3)nc2-c2csc(n2)-c2csc(n2)[C@H]([C@@H](O)c2ccccc2)NC(=O)CNC(=O)c2nc(sc2COC)[C@H](C(C)C)NC(=O)c2nc1sc2C ... 1 µg/mL

Now examine the next entry.
Data request, read-out MIC, for `CNC(=O)C[C@@H]1NC(=O)c2csc(n2)-c2ccc(-c3nc(NC(=O)OCCCN)cs3)nc2-c2csc(n2)-c2csc(n2)[C@H]([C@@H](O)c2ccccc2)NC(=O)CNC(=O)c2nc(sc2COC)[C@H](C(C)C)NC(=O)c2nc1sc2C`
1 µg/mL

* * *

Answer each item with its documented MIC.
system: Enterococcus faecium; assay: Antibacterial activity against Enterococcus faecium 7130724 by CLSI M07-A8 method; format: functional
Answers are plain numbers, in µg/mL.

Worked examples follow.
CNC(=O)C[C@@H]1NC(=O)c2csc(n2)-c2ccc(-c3nc(NC(=O)CCCCC(=O)OC)cs3)nc2-c2csc(n2)-c2csc(n2)[C@H]([C@@H](O)c2ccccc2)NC(=O)CNC(=O)c2nc(sc2COC)[C@H](C(C)C)NC(=O)c2nc1sc2C ... 2
CNC(=O)C[C@@H]1NC(=O)c2csc(n2)-c2ccc(-c3nc(NC(=O)OCCCC(=O)O)cs3)nc2-c2csc(n2)-c2csc(n2)[C@H]([C@@H](O)c2ccccc2)NC(=O)CNC(=O)c2nc(sc2COC)[C@H](C(C)C)NC(=O)c2nc1sc2C ... 0.06
CNC(=O)C[C@@H]1NC(=O)c2csc(n2)-c2ccc(-c3nc(NC(=O)NCCCC(=O)O)cs3)nc2-c2csc(n2)-c2csc(n2)[C@H]([C@@H](O)c2ccccc2)NC(=O)CNC(=O)c2nc(sc2COC)[C@H](C(C)C)NC(=O)c2nc1sc2C ... 4

Hey, can you go through the list below and give me MIC for every item?
1. CNC(=O)C[C@@H]1NC(=O)c2csc(n2)-c2ccc(-c3nc(NC(=O)OCCC[C@H](N)C(=O)O)cs3)nc2-c2csc(n2)-c2csc(n2)[C@H]([C@@H](O)c2ccccc2)NC(=O)CNC(=O)c2nc(sc2COC)[C@H](C(C)C)NC(=O)c2nc1sc2C
2. CNC(=O)C[C@@H]1NC(=O)c2csc(n2)-c2ccc(-c3nc(NC(=O)[C@H]4CC[C@H](C(=O)O)CC4)cs3)nc2-c2csc(n2)-c2csc(n2)[C@H]([C@@H](O)c2ccccc2)NC(=O)CNC(=O)c2nc(sc2COC)[C@H](C(C)C)NC(=O)c2nc1sc2C

[32, 0.06]

* * *

Answer each item with its documented MIC.
test system: Enterococcus faecalis; assay: Antibacterial activity against Enterococcus faecalis ATCC 29212 by CLSI M07-A8 method; format: functional
Give bare numbers, in mg/L.

CNC(=O)C[C@@H]1NC(=O)c2csc(n2)-c2ccc(-c3nc(NC(=O)OCCC[C@H](N)C(=O)O)cs3)nc2-c2csc(n2)-c2csc(n2)[C@H]([C@@H](O)c2ccccc2)NC(=O)CNC(=O)c2nc(sc2COC)[C@H](C(C)C)NC(=O)c2nc1sc2C ... 8

For the record `CNC(=O)C[C@@H]1NC(=O)c2csc(n2)-c2ccc(-c3nc(-n4cnc(C(=O)O)c4)cs3)nc2-c2csc(n2)-c2csc(n2)[C@H]([C@@H](O)c2ccccc2)NC(=O)CNC(=O)c2nc(sc2COC)[C@H](C(C)C)NC(=O)c2nc1sc2C` , what value of MIC is listed for Enterococcus faecalis?
4

* * *

tested on: Staphylococcus aureus; test: Antibacterial activity against methicillin-resistant Staphylococcus aureus isolate A4.018 by CLSI M07-A8 method; format: functional
Answer each item with its documented MIC.
Give bare numbers, in mg/L.

Hey, can you go through the list below and give me MIC for every item?
1. CNC(=O)C[C@@H]1NC(=O)c2csc(n2)-c2ccc(-c3nc(NC(=O)O[C@H]4C[C@@H](C(=O)O)C[C@@H]4N)cs3)nc2-c2csc(n2)-c2csc(n2)[C@H]([C@@H](O)c2ccccc2)NC(=O)CNC(=O)c2nc(sc2COC)[C@H](C(C)C)NC(=O)c2nc1sc2C
2. CNC(=O)C[C@@H]1NC(=O)c2csc(n2)-c2ccc(-c3nc(NC(=O)OCCCC(N)=O)cs3)nc2-c2csc(n2)-c2csc(n2)[C@H]([C@@H](O)c2ccccc2)NC(=O)CNC(=O)c2nc(sc2COC)[C@H](C(C)C)NC(=O)c2nc1sc2C
3. CNC(=O)C[C@@H]1NC(=O)c2csc(n2)-c2ccc(-c3nc(NC(=O)c4cnc(C(=O)O)cn4)cs3)nc2-c2csc(n2)-c2csc(n2)[C@H]([C@@H](O)c2ccccc2)NC(=O)CNC(=O)c2nc(sc2COC)[C@H](C(C)C)NC(=O)c2nc1sc2C
4. CNC(=O)C[C@@H]1NC(=O)c2csc(n2)-c2ccc(-c3nc(NC(=O)O[C@H]4CC[C@H](N)CC4)cs3)nc2-c2csc(n2)-c2csc(n2)[C@H]([C@@H](O)c2ccccc2)NC(=O)CNC(=O)c2nc(sc2COC)[C@H](C(C)C)NC(=O)c2nc1sc2C
5. CNC(=O)C[C@@H]1NC(=O)c2csc(n2)-c2ccc(-c3nc(NS(C)(=O)=O)cs3)nc2-c2csc(n2)-c2csc(n2)[C@H]([C@@H](O)c2ccccc2)NC(=O)CNC(=O)c2nc(sc2COC)[C@H](C(C)C)NC(=O)c2nc1sc2C
6. CNC(=O)C[C@@H]1NC(=O)c2csc(n2)-c2ccc(-c3nc(NC(=O)COCC(=O)O)cs3)nc2-c2csc(n2)-c2csc(n2)[C@H]([C@@H](O)c2ccccc2)NC(=O)CNC(=O)c2nc(sc2COC)[C@H](C(C)C)NC(=O)c2nc1sc2C
7. CNC(=O)C[C@@H]1NC(=O)c2csc(n2)-c2ccc(-c3nc(NC(=O)CCCC(=O)O)cs3)nc2-c2csc(n2)-c2csc(n2)[C@H]([C@@H](O)c2ccccc2)NC(=O)CNC(=O)c2nc(sc2COC)[C@H](C(C)C)NC(=O)c2nc1sc2C

2
0.5
0.5
1
2
0.5
0.25
